molecular target: MAO-B (Homo sapiens, UniProt P27338); experiment: MAO-B inhibition, recombinant enzyme, benzylamine substrate; conditions: IC50 MAO-B
Sequence (P27338 whole entry): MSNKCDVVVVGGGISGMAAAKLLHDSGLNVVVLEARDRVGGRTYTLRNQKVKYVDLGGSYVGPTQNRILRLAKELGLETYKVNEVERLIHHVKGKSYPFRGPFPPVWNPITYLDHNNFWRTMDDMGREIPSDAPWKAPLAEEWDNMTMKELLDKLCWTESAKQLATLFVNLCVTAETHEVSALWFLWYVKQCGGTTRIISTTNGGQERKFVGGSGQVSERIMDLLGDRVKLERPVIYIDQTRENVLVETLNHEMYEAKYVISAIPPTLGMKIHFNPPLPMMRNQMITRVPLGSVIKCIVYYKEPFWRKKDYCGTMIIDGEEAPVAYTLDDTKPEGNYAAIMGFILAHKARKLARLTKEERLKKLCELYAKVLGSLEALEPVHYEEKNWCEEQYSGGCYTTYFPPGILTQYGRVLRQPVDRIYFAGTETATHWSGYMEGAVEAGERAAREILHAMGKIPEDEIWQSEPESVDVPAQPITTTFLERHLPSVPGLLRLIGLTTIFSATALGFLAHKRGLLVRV
hey, just use condition met if measured IC50 is less than 5 nM, otherwise condition not met

Recorded results for 4 compounds are shown here.
MOLECULE	LABEL VALUE
O=C(/C=C/C=C/c1ccc(Br)cc1)c1ccc(Br)cc1	condition not met
COc1ccc(/C=C/C=C/C(=O)c2ccc(F)cc2)cc1	condition met
O=C(/C=C/C=C/c1ccc(F)cc1)c1ccc(Cl)cc1	condition not met
O=C(/C=C/C=C/c1ccc([N+](=O)[O-])cc1)c1ccc(Cl)cc1	condition met

--- query ---
*Q* Check if IC50 falls below 5 nM for O=C(/C=C/C=C/c1ccc(Br)cc1)c1ccc(Cl)cc1 .
*A* condition not met

---

Catalogue of molecules with associated residual activity (%) AChE
target: AChE (Electrophorus electricus, UniProt O42275); test: AChE inhibition; settings: 10 μM
Sequence (O42275 24-633): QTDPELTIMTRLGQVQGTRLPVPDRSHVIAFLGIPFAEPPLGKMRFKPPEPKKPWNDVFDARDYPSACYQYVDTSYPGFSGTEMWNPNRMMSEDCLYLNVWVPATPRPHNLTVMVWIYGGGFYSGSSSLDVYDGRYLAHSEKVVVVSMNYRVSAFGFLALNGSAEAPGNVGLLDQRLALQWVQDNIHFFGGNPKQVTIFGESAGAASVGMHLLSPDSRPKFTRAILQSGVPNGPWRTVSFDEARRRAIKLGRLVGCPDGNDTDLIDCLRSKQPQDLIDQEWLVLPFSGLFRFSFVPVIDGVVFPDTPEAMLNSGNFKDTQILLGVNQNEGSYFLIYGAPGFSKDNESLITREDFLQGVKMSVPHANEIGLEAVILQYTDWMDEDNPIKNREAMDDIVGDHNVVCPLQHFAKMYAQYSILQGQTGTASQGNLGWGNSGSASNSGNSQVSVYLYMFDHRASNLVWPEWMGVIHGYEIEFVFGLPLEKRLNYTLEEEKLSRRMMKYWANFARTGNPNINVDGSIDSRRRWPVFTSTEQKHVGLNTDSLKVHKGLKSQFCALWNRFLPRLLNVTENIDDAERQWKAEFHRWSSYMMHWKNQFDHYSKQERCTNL
Quick reminder: number only, in %, skip the unit.

*Q* Suppose we examine the molecule O=C(/C=C/C=C/c1ccc(Br)cc1)c1ccc(F)cc1 ; what residual activity (%) AChE value has been reported?
*A* 77.8

*Q* Suppose we examine the molecule O=C(/C=C/C=C/c1ccc(F)cc1)c1ccc(Br)cc1 ; what residual activity (%) AChE value has been reported?
*A* 57.7

*Q* Suppose we examine the molecule O=C(/C=C/C=C/c1ccc(F)cc1)c1ccc(Cl)cc1 ; what residual activity (%) AChE value has been reported?
*A* 90.7

---

experiment: Cytotoxicity on Vero cells, MTT method; assay type: cell-based, African green monkey; settings: African green monkey, Vero cells (normal kidney epithelial cell line)
PROPERTY LABEL: viability at 24 h, 60 μg/mL

*Q* Suppose we examine the compound COc1ccc(/C=C/C=C/C(=O)c2ccccc2)cc1 ; what viability at 24 h, 60 μg/mL value has been reported?
*A* > 80%

---

test: Cytotoxicity on Vero cells, MTT method; format: cell-based, African green monkey; details: African green monkey, Vero cells (normal kidney epithelial cell line)
PROPERTY LABEL: viability at 24 h, 80 μg/mL

*Q* Suppose we examine the compound O=C(/C=C/C=C/c1ccccc1)c1ccc(Br)cc1 [MK6] ; what viability at 24 h, 80 μg/mL value has been reported?
*A* > 70%

---

Hi! I'm sharing some pIC50 results obtained with MAO-A (Homo sapiens).
Scale note: pIC50 = -log10(concentration in M).

Some entries whose results are on file:
MOLECULE	pIC50
O=C(/C=C/C=C/c1ccccc1)c1ccc(Cl)cc1	4.78
O=C(/C=C/C=C/c1ccc([N+](=O)[O-])cc1)c1ccc(Cl)cc1	4.72
COc1ccc(/C=C/C=C/C(=O)c2ccc(Br)cc2)cc1	4.62
O=C(/C=C/C=C/c1ccc(F)cc1)c1ccc(Br)cc1	4.65
O=C(/C=C/C=C/c1ccc([N+](=O)[O-])cc1)c1ccc(F)cc1	4.63
O=C(/C=C/C=C/c1ccc(Br)cc1)c1ccc(F)cc1	4.56
O=C(/C=C/C=C/c1ccc([N+](=O)[O-])cc1)c1ccccc1	4.90
O=C(/C=C/C=C/c1ccc(F)cc1)c1ccc(Cl)cc1	4.81

*Q* Report pIC50 for O=C(/C=C/C=C/c1ccc(Br)cc1)c1ccc(Br)cc1 tested on MAO-A (Homo sapiens).
*A* 4.66

*Q* Report pIC50 for COc1ccc(/C=C/C=C/C(=O)c2ccccc2)cc1 tested on MAO-A (Homo sapiens).
*A* 4.72

*Q* Report pIC50 for O=C(/C=C/C=C/c1ccc(Br)cc1)c1ccc(Cl)cc1 tested on MAO-A (Homo sapiens).
*A* 4.63

*Q* Report pIC50 for COc1ccc(/C=C/C=C/C(=O)c2ccc(F)cc2)cc1 tested on MAO-A (Homo sapiens).
*A* 5.24

*Q* Report pIC50 for O=C(/C=C/C=C/c1ccc([N+](=O)[O-])cc1)c1ccc(Br)cc1 tested on MAO-A (Homo sapiens).
*A* 4.71

*Q* Report pIC50 for COc1ccc(/C=C/C=C/C(=O)c2ccc(Cl)cc2)cc1 tested on MAO-A (Homo sapiens).
*A* 4.77

*Q* Report pIC50 for O=C(/C=C/C=C/c1ccccc1)c1ccc(Br)cc1 tested on MAO-A (Homo sapiens).
*A* 4.69

---

Catalogue of compounds with associated residual activity (%) BChE
target: BChE (Equus caballus, UniProt P81908); settings: 10 μM
Sequence (P81908 whole entry): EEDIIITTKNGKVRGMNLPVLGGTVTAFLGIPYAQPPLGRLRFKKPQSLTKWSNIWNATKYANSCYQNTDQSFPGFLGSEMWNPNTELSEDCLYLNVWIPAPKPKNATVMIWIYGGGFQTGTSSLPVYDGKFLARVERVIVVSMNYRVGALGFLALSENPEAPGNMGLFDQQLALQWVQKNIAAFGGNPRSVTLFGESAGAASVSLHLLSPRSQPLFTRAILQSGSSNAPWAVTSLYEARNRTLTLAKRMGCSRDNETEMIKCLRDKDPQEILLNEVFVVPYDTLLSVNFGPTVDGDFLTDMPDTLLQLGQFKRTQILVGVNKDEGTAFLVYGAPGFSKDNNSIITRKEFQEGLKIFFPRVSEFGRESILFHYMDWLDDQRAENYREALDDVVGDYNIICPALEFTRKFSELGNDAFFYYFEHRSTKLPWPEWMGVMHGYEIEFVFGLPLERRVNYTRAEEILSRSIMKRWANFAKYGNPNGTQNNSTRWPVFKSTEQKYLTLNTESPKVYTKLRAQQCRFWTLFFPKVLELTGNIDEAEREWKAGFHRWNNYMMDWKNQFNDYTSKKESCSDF
Quick reminder: number only, in %, skip the unit.

COMPOUND	TARGET SYSTEM	ASSAY RESULT
O=C(/C=C/C=C/c1ccc([N+](=O)[O-])cc1)c1ccccc1 [MK15]	BChE (Equus caballus, UniProt P81908)	80.2

*Q* Report residual activity (%) BChE for O=C(/C=C/C=C/c1ccc([N+](=O)[O-])cc1)c1ccc(Br)cc1 [MK10] tested on BChE (Equus caballus, UniProt P81908).
*A* 87.9

*Q* Report residual activity (%) BChE for COc1ccc(/C=C/C=C/C(=O)c2ccc(F)cc2)cc1 [MK12] tested on BChE (Equus caballus, UniProt P81908).
*A* 94.6

---

Biological target: MAO-A (Homo sapiens, UniProt P21397)
Sequence (P21397 1-527): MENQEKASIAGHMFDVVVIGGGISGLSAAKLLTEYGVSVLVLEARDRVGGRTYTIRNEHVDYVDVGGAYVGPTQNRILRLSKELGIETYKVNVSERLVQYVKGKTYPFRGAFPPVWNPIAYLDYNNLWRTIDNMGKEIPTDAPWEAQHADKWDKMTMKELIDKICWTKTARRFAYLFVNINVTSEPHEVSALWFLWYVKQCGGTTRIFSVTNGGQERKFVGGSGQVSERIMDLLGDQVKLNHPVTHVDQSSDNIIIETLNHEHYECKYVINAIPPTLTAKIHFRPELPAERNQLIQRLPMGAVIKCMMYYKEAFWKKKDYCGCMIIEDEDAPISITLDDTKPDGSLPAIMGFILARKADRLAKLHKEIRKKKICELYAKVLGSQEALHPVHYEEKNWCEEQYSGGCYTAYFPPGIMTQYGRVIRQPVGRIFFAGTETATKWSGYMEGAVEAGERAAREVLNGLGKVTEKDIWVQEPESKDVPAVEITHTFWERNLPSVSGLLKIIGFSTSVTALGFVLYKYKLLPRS
Assay: biochemical
Conditions: read-out: residual activity (%) MAO-A
hey, just use 1 if measured remaining activity at 10 µM is less than 70%, otherwise -1

Recorded results for 2 compounds are shown here.
MOLECULE	LABEL VALUE
O=C(/C=C/C=C/c1ccc([N+](=O)[O-])cc1)c1ccccc1	1
O=C(/C=C/C=C/c1ccc([N+](=O)[O-])cc1)c1ccc(Cl)cc1	-1

*Q* Check if remaining activity at 10 µM falls below 70% for O=C(/C=C/C=C/c1ccccc1)c1ccc(Cl)cc1 .
*A* -1

---

target: BChE (Equus caballus); conditions: 10 μM
Use 90% as the dividing line for residual activity (%) BChE, with the line itself on the Criterion met side and lower values as Criterion not met.

Recorded results for 4 compounds are shown here.
MOLECULE	LABEL VALUE
O=C(/C=C/C=C/c1ccc([N+](=O)[O-])cc1)c1ccc(Cl)cc1	Criterion not met
O=C(/C=C/C=C/c1ccc(Br)cc1)c1ccc(Cl)cc1	Criterion met
O=C(/C=C/C=C/c1ccc(F)cc1)c1ccc(Cl)cc1	Criterion met
COc1ccc(/C=C/C=C/C(=O)c2ccc(Cl)cc2)cc1	Criterion not met

*Q* Can COc1ccc(/C=C/C=C/C(=O)c2ccc(Br)cc2)cc1 be said to have residual activity (%) BChE at or above 90%?
*A* Criterion not met

---

Catalogue of compounds with associated remaining activity at 10 µM
Target: UniProt:P21397
Sequence (P21397 1-527): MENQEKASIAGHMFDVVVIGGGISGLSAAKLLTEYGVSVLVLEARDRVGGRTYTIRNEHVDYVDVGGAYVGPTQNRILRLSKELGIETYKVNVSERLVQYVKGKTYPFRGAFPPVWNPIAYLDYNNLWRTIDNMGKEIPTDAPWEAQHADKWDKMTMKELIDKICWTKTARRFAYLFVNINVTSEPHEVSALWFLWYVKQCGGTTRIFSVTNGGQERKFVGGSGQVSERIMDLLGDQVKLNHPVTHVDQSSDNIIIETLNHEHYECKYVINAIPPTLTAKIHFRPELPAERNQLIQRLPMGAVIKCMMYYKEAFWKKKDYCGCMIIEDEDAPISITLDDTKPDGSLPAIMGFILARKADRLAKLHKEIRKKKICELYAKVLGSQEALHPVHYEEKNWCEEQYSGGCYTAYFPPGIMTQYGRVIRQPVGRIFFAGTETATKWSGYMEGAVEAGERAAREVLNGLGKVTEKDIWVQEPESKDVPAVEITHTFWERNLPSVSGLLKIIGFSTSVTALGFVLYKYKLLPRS
Experiment: biochemical
Conditions: read-out: residual activity (%) MAO-A
Include the unit right after the number.

Some entries whose results are on file:
MOLECULE	ASSAY RESULT
O=C(/C=C/C=C/c1ccc(Br)cc1)c1ccc(Cl)cc1	97.8%
O=C(/C=C/C=C/c1ccc(Br)cc1)c1ccc(F)cc1	76.9%
O=C(/C=C/C=C/c1ccc(F)cc1)c1ccc(Cl)cc1	77%

Now for a further compound.
*Q* Suppose we examine the compound O=C(/C=C/C=C/c1ccc([N+](=O)[O-])cc1)c1ccc(Br)cc1 ; what remaining activity at 10 µM value has been reported?
*A* 69.1%
